# Tested on: Vesicular stomatitis virus
# assayText: microbe, parasite or virus in culture
# recordedConditions: HeLa
The following compounds are shown together with reported EC50 values.

The compound identified as `Nc1ccn(C[C@H]2COP(=O)(O)CO2)c(=O)n1` registered its EC50 at > 200 µg/mL

EC50 reported for this compound Nc1ncnc2c1ncn2C[C@H](O)CO [(S)-DHPA] : 120 µg/mL

---

# assayText: Cytotoxicity against C3H cells assessed as alteration in morphology after 3 days
# Type: cell-based, Mus musculus
# recordedConditions: mouse, C3H cells
metric: MCC at 72 h (µg/mL)
Numbers only here, please. The scale is µg/mL.

Reference set (4 entries):
CCCCCCCCCCCCCCCCOCCOP1(=O)CO[C@@H](Cn2cnc(N)nc2=O)CO1 (stereo not given in full)	20
Nc1ncn(C[C@H]2COP(=O)(O)CO2)c(=O)n1	100
CC(C)(C)C(=O)OCOP1(=O)CO[C@@H](Cn2cnc(N)nc2=O)CO1 (stereo not given in full)	100
Nc1ccn(C[C@@H](CO)OCP(=O)(O)O)c(=O)n1.O.O [CIDOFOVIR]	20

Now look at this entry.
Field MCC at 72 h (entry Nc1ccn(C[C@H]2COP(=O)(O)CO2)c(=O)n1 [CYCLIC CIDOFOVIR] ) reads 100

---

# Tested on: Sindbis virus
# assayText: Antiviral activity against Sindbis virus in Vero cells reduction of virus-induced cytopathogenicity after 4 days
# Assay type: functional, organism-based
# recordedConditions: 96 h
Each item that follows carries a reported EC50.

Nc1ncnc2c1ncn2C[C@H](O)CO [(S)-DHPA]	> 200 µg/mL

O=c1[nH]c(=O)n([C@H]2C[C@H](O)[C@@H](CO)O2)cc1/C=C/Br [BRIVUDINE] yielded EC50 of > 200 µg/mL

Measured EC50, NC(=O)c1ncn([C@@H]2O[C@H](CO)[C@@H](O)[C@H]2O)n1 [RIBAVIRIN] : 120 µg/mL

Given item Nc1ccn(C[C@@H](CO)OCP(=O)(O)O)c(=O)n1.O.O [CIDOFOVIR] , the value recorded as its EC50 is > 31.5 µg/mL

Entry CCCCCCCCCCCCCCCCOCCOP1(=O)CO[C@@H](Cn2cnc(N)nc2=O)CO1 (stereo not given in full) ; EC50 = 16 µg/mL

---

Listed next: entries and their corresponding EC50.
# System: Sindbis virus
# assayText: Antiviral activity against Sindbis virus in Vero cells reduction of virus-induced cytopathogenicity after 4 days
# Assay type: functional, organism-based
# recordedConditions: 96 h

CCCCCCCCCCCCCCCCCCOP1(=O)CO[C@@H](Cn2cnc(N)nc2=O)CO1 (stereo not given in full)	> 8 µg/mL

Data point: `Nc1ccn(C[C@H]2COP(=O)(O)CO2)c(=O)n1` ; EC50 = > 200 µg/mL

EC50 recorded for this compound, `Nc1ncn(C[C@H]2COP(=O)(O)CO2)c(=O)n1` , is > 200 µg/mL

Input CC(C)(C)C(=O)OCOP1(=O)CO[C@@H](Cn2cnc(N)nc2=O)CO1 (stereo not given in full) . Output EC50: > 100 µg/mL

Notebook: `Nc1ncn(C[C@@H](CO)OCP(=O)(O)O)c(=O)n1` , EC50 read as > 100 µg/mL

---

# Tested on: Human alphaherpesvirus 3
# Type: functional, organism-based
# recordedConditions: Human alphaherpesvirus 3, 07-1, HEL
For each record, check the reported EC50: if it is below 0.02 µg/mL write t, else write f.

Nc1ncn(C[C@@H](CO)OCP(=O)(O)O)c(=O)n1	f
CCCCCCCCCCCCCCCCOCCOP1(=O)CO[C@@H](Cn2cnc(N)nc2=O)CO1 (stereo partly drawn)	t
Nc1ccn(C[C@H]2COP(=O)(O)CO2)c(=O)n1	f

Query block: # TODO verify EC50 < 0.02 µg/mL strictly for this compound: `O=c1[nH]c(=O)n([C@H]2C[C@H](O)[C@@H](CO)O2)cc1/C=C/Br`
Result block: f

Query block: Quick check: EC50 of `Nc1ccn(C[C@@H](CO)OCP(=O)(O)O)c(=O)n1.O.O` under 0.02 µg/mL?
Result block: f

Query block: Here's an entry: `Nc1ncn(C[C@H]2COP(=O)(O)CO2)c(=O)n1` . Is its EC50 below 0.02 µg/mL?
Result block: f

Query block: In the record for CCCCCCCCCCCCCCCCCCOP1(=O)CO[C@@H](Cn2cnc(N)nc2=O)CO1 (stereo partly drawn) , is EC50 less than 0.02 µg/mL?
Result block: t

---

# assayText: Cytotoxicity against Vero cells assessed as alteration in morphology after 3 days
# Type: cell-based, Chlorocebus sabaeus
# recordedConditions: chlorocebus sabaeus, Vero cells
metric: MCC at 72 h

The cases that follow already have their MCC at 72 h on record.
O=c1[nH]c(=O)n([C@H]2C[C@H](O)[C@@H](CO)O2)cc1/C=C/Br	> 200 µg/mL
NC(=O)c1ncn([C@@H]2O[C@H](CO)[C@@H](O)[C@H]2O)n1	> 200 µg/mL
Nc1ccn(C[C@H]2COP(=O)(O)CO2)c(=O)n1	> 200 µg/mL
Nc1ncnc2c1ncn2C[C@H](O)CO [(S)-DHPA]	> 200 µg/mL
Nc1ccn(C[C@@H](CO)OCP(=O)(O)O)c(=O)n1.O.O	> 31.5 µg/mL
CCCCCCCCCCCCCCCCOCCOP1(=O)CO[C@@H](Cn2cnc(N)nc2=O)CO1 (stereo partly drawn)	80 µg/mL
Nc1ncn(C[C@H]2COP(=O)(O)CO2)c(=O)n1	> 200 µg/mL

# next compound below
Lab note: measured MCC at 72 h of CC(C)(C)C(=O)OCOP1(=O)CO[C@@H](Cn2cnc(N)nc2=O)CO1 (stereo partly drawn) was > 100 µg/mL

---

Each entry below carries its reported EC50.
# Test system: Mammalian orthoreovirus 1
# assayText: Antiviral activity against Reovirus 1 in Vero cells reduction of virus-induced cytopathogenicity after 4 days
# Assay type: functional, organism-based
# recordedConditions: Mammalian orthoreovirus 1, Vero, 96 h

CCCCCCCCCCCCCCCCCCOP1(=O)CO[C@@H](Cn2cnc(N)nc2=O)CO1 (stereo not given in full)	> 8 µg/mL

Per the record, `Nc1ncn(C[C@@H](CO)OCP(=O)(O)O)c(=O)n1` has EC50 of > 100 µg/mL

// `O=c1[nH]c(=O)n([C@H]2C[C@H](O)[C@@H](CO)O2)cc1/C=C/Br` : EC50 value = > 200 µg/mL

Just so you know, measured EC50 for Nc1ncnc2c1ncn2C[C@H](O)CO [(S)-DHPA] came out at 200 µg/mL

Lookup result for CCCCCCCCCCCCCCCCOCCOP1(=O)CO[C@@H](Cn2cnc(N)nc2=O)CO1 (stereo not given in full) ; measured EC50: 16 µg/mL

So for `Nc1ccn(C[C@@H](CO)OCP(=O)(O)O)c(=O)n1.O.O` , the logged EC50 turned out to be > 31.5 µg/mL

Just so you know, measured EC50 for CC(C)(C)C(=O)OCOP1(=O)CO[C@@H](Cn2cnc(N)nc2=O)CO1 (stereo not given in full) came out at > 100 µg/mL

---

Reported EC50 values follow for various molecules
# Test system: Punta Toro virus
# assayText: Antiviral activity against Punta Toro virus in Vero cells reduction of virus-induced cytopathogenicity after 4 days
# Format: functional, organism-based
# recordedConditions: 96 h
Your answer is read as µg/mL, so omit the unit and give the number.

CCCCCCCCCCCCCCCCOCCOP1(=O)CO[C@@H](Cn2cnc(N)nc2=O)CO1 (stereo not given in full)	16

// EC50 value for NC(=O)c1ncn([C@@H]2O[C@H](CO)[C@@H](O)[C@H]2O)n1 [RIBAVIRIN] : 40

---

# System: Moloney murine sarcoma virus
# recordedConditions: C3H
metric: EC50

Here is how some compounds turned out for EC50.
CCCCCCCCCCCCCCCCCCOP1(=O)CO[C@@H](Cn2cnc(N)nc2=O)CO1 (some centres not stated)	> 4 µg/mL
CCCCCCCCCCCCCCCCOCCOP1(=O)CO[C@@H](Cn2cnc(N)nc2=O)CO1 (some centres not stated)	> 4 µg/mL

Kindly note the recorded EC50 for CC(C)(C)C(=O)OCOP1(=O)CO[C@@H](Cn2cnc(N)nc2=O)CO1 (some centres not stated) , which is > 20 µg/mL

---

# System: HeLa
# assayText: Cytotoxicity against HeLa cells assessed as alteration in morphology after 3 days
# Format: functional, cell-based
# recordedConditions: Homo sapiens, 72 h
metric: MCC

Example results:
O=c1[nH]c(=O)n([C@H]2C[C@H](O)[C@@H](CO)O2)cc1/C=C/Br [BRIVUDINE]	> 200 µg/mL
Nc1ccn(C[C@H]2COP(=O)(O)CO2)c(=O)n1 [CYCLIC CIDOFOVIR]	> 200 µg/mL
Nc1ncnc2c1ncn2C[C@H](O)CO [(S)-DHPA]	> 200 µg/mL
Nc1ccn(C[C@@H](CO)OCP(=O)(O)O)c(=O)n1.O.O [CIDOFOVIR]	> 31.5 µg/mL
Nc1ncn(C[C@H]2COP(=O)(O)CO2)c(=O)n1	> 200 µg/mL
NC(=O)c1ncn([C@@H]2O[C@H](CO)[C@@H](O)[C@H]2O)n1 [RIBAVIRIN]	> 200 µg/mL

Readout MCC for CC(C)(C)C(=O)OCOP1(=O)CO[C@@H](Cn2cnc(N)nc2=O)CO1 (stereo partly drawn) , test system HeLa, was 100 µg/mL

Query CCCCCCCCCCCCCCCCOCCOP1(=O)CO[C@@H](Cn2cnc(N)nc2=O)CO1 (stereo partly drawn) on HeLa; MCC returned: 16 µg/mL

Provenance of the data: ChEMBL document CHEMBL1138246
